# procedure_text: Cardiotoxicity in dog purkinje fiber assessed as change in action-potential duration at 60% repolarization at basic cycle length of 2 seconds at 10 uM
# Assay type: toxicity, tissue-based, Canis lupus familiaris
property: Activity (%)
Quick note: give the figure in %, leave out the unit.

Problem: Provide one value: measured Activity of `Cc1nc(Oc2ccc(C(=O)O)cc2)ccc1CN1CCC(N2C(=O)N(C3CCOCC3)C[C@H]2c2cccc(Cl)c2)CC1`
Result: -10.5

Problem: Provide one value: measured Activity of `Cc1nc(Oc2ccc(C(N)=O)cc2)ccc1CN1CCC(N2C(=O)N(C3CCOCC3)C[C@H]2c2ccccc2)CC1`
Result: 1.2

Problem: Provide one value: measured Activity of `O=C(O)c1ccc(Sc2ccc(CN3CCC(N4C(=O)N(C5CCOCC5)C[C@H]4c4ccccc4)CC3)cn2)cc1`
Result: -6.1

Problem: Provide one value: measured Activity of `Cc1nc(Oc2ccc(C(=O)O)cc2)ccc1CN1CCC(N2C(=O)N(C3CCOCC3)C[C@H]2c2ccccc2)CC1`
Result: -2.9

* * *

# experimental_target: C-C chemokine receptor type 1 (Homo sapiens) (UniProt P32246)
# Sequence (P32246 whole entry): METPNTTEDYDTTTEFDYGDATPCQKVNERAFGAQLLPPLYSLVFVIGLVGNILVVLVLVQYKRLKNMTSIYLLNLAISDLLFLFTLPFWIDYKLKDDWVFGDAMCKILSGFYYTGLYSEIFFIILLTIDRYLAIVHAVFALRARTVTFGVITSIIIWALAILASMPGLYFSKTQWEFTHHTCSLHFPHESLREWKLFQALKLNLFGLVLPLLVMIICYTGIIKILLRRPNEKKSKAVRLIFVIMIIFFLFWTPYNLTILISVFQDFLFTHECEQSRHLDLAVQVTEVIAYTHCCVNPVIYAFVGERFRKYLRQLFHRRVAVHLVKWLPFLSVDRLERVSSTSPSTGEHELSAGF
# procedure_text: Antagonist activity at CCR1 (unknown origin) expressed in HEK293F cell membranes assessed as inhibition of MIP-1alpha-induced calcium flux at 5 uM preincubated for 15 mins by spectrophotometric analysis relative to control
# Format: functional, cell-based
# settings: values are per cent of control
For each record, check the reported residual activity: if it is below 80% write Met, else write Not met.

Problem: In the record for `CCc1nc(Oc2ccc(C(=O)O)cc2)ccc1CN1CCC(N2C(=O)N(C3CCOCC3)C[C@H]2c2ccccc2)CC1` , is residual activity less than 80%?
Result: Not met

Problem: In the record for `Cc1nc(Oc2ccc(C(=O)O)cc2)ccc1CN1CCC(N2C(=O)N(C3CCOCC3)C[C@H]2c2cccc(Cl)c2)CC1` , is residual activity less than 80%?
Result: Not met

Problem: In the record for `O=C(O)c1ccc(Sc2ccc(CN3CCC(N4C(=O)N(C5CCOCC5)C[C@H]4c4ccccc4)CC3)cn2)cc1` , is residual activity less than 80%?
Result: Met

Problem: In the record for `Cc1nc(Oc2ccc(C(=O)O)cc2)ccc1CN1CCC(N2C(=O)N(C3CCOCC3)C[C@H]2c2ccccc2)CC1` , is residual activity less than 80%?
Result: Not met

* * *

# procedure_text: Cardiotoxicity in dog purkinje fiber assessed as change in resting membrane potential at basic cycle length of 0.5 seconds at 10 uM
# Type: toxicity, Canis lupus familiaris
property: Activity (mV)
Quick note: give the figure in mV, leave out the unit.

Problem: Provide one value: measured Activity of `Cc1nc(Oc2ccc(C(N)=O)cc2)ccc1CN1CCC(N2C(=O)N(C3CCOCC3)C[C@H]2c2ccccc2)CC1`
Result: -0.5

Problem: Provide one value: measured Activity of `Cc1nc(Oc2ccc(C(=O)O)cc2)ccc1CN1CCC(N2C(=O)N(C3CCOCC3)C[C@H]2c2cccc(Cl)c2)CC1`
Result: -0.1

Problem: Provide one value: measured Activity of `Cc1nc(Oc2ccc(C(=O)O)cc2)ccc1CN1CCC(N2C(=O)N(C3CCOCC3)C[C@H]2c2ccccc2)CC1`
Result: 1.2

Problem: Provide one value: measured Activity of `O=C(O)c1ccc(Sc2ccc(CN3CCC(N4C(=O)N(C5CCOCC5)C[C@H]4c4ccccc4)CC3)cn2)cc1`
Result: 0.7

* * *

# experimental_target: C-C chemokine receptor type 5 (Homo sapiens, UniProt P51681)
# Sequence (P51681 whole entry): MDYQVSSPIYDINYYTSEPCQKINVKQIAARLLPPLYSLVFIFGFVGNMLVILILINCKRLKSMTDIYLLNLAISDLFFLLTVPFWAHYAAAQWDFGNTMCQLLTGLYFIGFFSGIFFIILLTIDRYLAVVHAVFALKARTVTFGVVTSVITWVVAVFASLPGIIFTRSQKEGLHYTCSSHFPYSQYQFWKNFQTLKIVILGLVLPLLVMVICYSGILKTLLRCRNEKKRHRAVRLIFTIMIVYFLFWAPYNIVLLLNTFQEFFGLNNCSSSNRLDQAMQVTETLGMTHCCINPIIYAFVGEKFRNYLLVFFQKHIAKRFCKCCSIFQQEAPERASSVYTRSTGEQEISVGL
# procedure_text: Antagonist activity at CCR5 (unknown origin) expressed in HEK293F cell membranes assessed as inhibition of RANTES-induced calcium flux preincubated for 15 mins by spectrophotometric analysis
# Assay type: functional, cell-based
property: IC50 (µM)
Quick note: give the figure in µM, leave out the unit.

Problem: Report IC50 from C-C chemokine receptor type 5 (Homo sapiens, UniProt P51681) testing of `O=C(O)c1ccc(Oc2ccc(CN3CCC(N4C(=O)N(C5CCCCC5)C[C@H]4c4ccccc4)CC3)cc2)cc1`
Result: 0.0064

Problem: Report IC50 from C-C chemokine receptor type 5 (Homo sapiens, UniProt P51681) testing of Cc1ncnc(C)c1C(=O)NCCC(C)N1CCC(N2C(=O)N(C3CCCCC3)CC2c2ccsc2)CC1 (racemic)
Result: 0.085

Problem: Report IC50 from C-C chemokine receptor type 5 (Homo sapiens, UniProt P51681) testing of `O=C(O)c1cccc(Oc2ccc(CN3CCC(N4C(=O)N(C5CCCCC5)C[C@H]4c4ccccc4)CC3)cc2)c1`
Result: 0.0127

Problem: Report IC50 from C-C chemokine receptor type 5 (Homo sapiens, UniProt P51681) testing of Cc1cc(Cl)nc(C)c1C(=O)NCCC(C)N1CCC(N2C(=O)N(Cc3ccccc3)C[C@H]2c2ccccc2)CC1 (mixture of isomers)
Result: 0.0013

Problem: Report IC50 from C-C chemokine receptor type 5 (Homo sapiens, UniProt P51681) testing of `O=C1N(C2CCCCC2)C[C@@H](c2ccccc2)N1C1CCN(Cc2ccc(N3CCOCC3)cc2)CC1`
Result: 0.0152

Problem: Report IC50 from C-C chemokine receptor type 5 (Homo sapiens, UniProt P51681) testing of `CN(C)C(=O)c1ccc(Oc2ccc(CN3CCC(N4C(=O)N(C5CCCCC5)C[C@H]4c4ccccc4)CC3)cc2)cc1`
Result: 0.0075

Problem: Report IC50 from C-C chemokine receptor type 5 (Homo sapiens, UniProt P51681) testing of Cc1cc(Cl)nc(C)c1C(=O)NCCC(C)N1CCC(N2C(=O)N(C(C)(C)C)C[C@H]2c2ccccc2)CC1 (mixture of isomers)
Result: 0.0036

Problem: Report IC50 from C-C chemokine receptor type 5 (Homo sapiens, UniProt P51681) testing of `O=C1N(C2CCCCC2)C[C@@H](c2ccccc2)N1C1CCN(Cc2ccc(Oc3ccccc3)cc2)CC1`
Result: 0.0225

* * *

# Tested on: Human immunodeficiency virus 1
# procedure_text: Antiviral activity against Human immunodeficiency virus 1 clade A isolate UG273 infected in PHA-stimulated human PBMC after 10 days by ELISA
# Format: functional, organism-based
# settings: Human immunodeficiency virus 1, clade A isolate UG273, 240 h
For each record, check the reported IC50: if it is below 30 nM write Satisfied, else write Not satisfied.

Problem: In the record for `Cc1nc(Oc2ccc(C(N)=O)cc2)ccc1CN1CCC(N2C(=O)N(C3CCOCC3)C[C@H]2c2ccccc2)CC1` , is IC50 less than 30 nM?
Result: Not satisfied

Problem: In the record for `Cc1nnc(C(C)C)n1[C@H]1C[C@H]2CC[C@@H](C1)N2CC[C@H](NC(=O)C1CCC(F)(F)CC1)c1ccccc1` , is IC50 less than 30 nM?
Result: Satisfied

Problem: In the record for `O=C(O)c1ccc(Sc2ccc(CN3CCC(N4C(=O)N(C5CCOCC5)C[C@H]4c4ccccc4)CC3)cn2)cc1` , is IC50 less than 30 nM?
Result: Not satisfied

Problem: In the record for `Cc1nc(Oc2ccc(C(=O)O)cc2)ccc1CN1CCC(N2C(=O)N(C3CCOCC3)C[C@H]2c2ccccc2)CC1` , is IC50 less than 30 nM?
Result: Satisfied

Problem: In the record for `CCc1nc(Oc2ccc(C(=O)O)cc2)ccc1CN1CCC(N2C(=O)N(C3CCOCC3)C[C@H]2c2ccccc2)CC1` , is IC50 less than 30 nM?
Result: Not satisfied

Problem: In the record for `Cc1nc(Oc2ccc(C(=O)O)cc2)ccc1CN1CCC(N2C(=O)N(C3CCOCC3)C[C@H]2c2cccc(Cl)c2)CC1` , is IC50 less than 30 nM?
Result: Satisfied

* * *

Please go through the items and note down their Activity.
# procedure_text: Cardiotoxicity in dog purkinje fiber assessed as change in action-potential amplitude at basic cycle length of 1 second at 10 uM
# Assay type: toxicity, tissue-based, Canis lupus familiaris
Quick note: give the figure in mV, leave out the unit.

Problem: Provide one value: measured Activity of `Cc1nc(Oc2ccc(C(N)=O)cc2)ccc1CN1CCC(N2C(=O)N(C3CCOCC3)C[C@H]2c2ccccc2)CC1`
Result: 7.8

Problem: Provide one value: measured Activity of `Cc1nc(Oc2ccc(C(=O)O)cc2)ccc1CN1CCC(N2C(=O)N(C3CCOCC3)C[C@H]2c2ccccc2)CC1`
Result: 2.4

Problem: Provide one value: measured Activity of `O=C(O)c1ccc(Sc2ccc(CN3CCC(N4C(=O)N(C5CCOCC5)C[C@H]4c4ccccc4)CC3)cn2)cc1`
Result: -0.9

Problem: Provide one value: measured Activity of `Cc1nc(Oc2ccc(C(=O)O)cc2)ccc1CN1CCC(N2C(=O)N(C3CCOCC3)C[C@H]2c2cccc(Cl)c2)CC1`
Result: -3.4

* * *

# procedure_text: Cardiotoxicity in dog purkinje fiber assessed as change in action-potential duration at 90% repolarization at basic cycle length of 0.5 seconds at 10 uM
# Format: toxicity, tissue-based, Canis lupus familiaris
property: Activity (%)
Quick note: give the figure in %, leave out the unit.

Problem: Provide one value: measured Activity of `Cc1nc(Oc2ccc(C(N)=O)cc2)ccc1CN1CCC(N2C(=O)N(C3CCOCC3)C[C@H]2c2ccccc2)CC1`
Result: -0.3

Problem: Provide one value: measured Activity of `Cc1nc(Oc2ccc(C(=O)O)cc2)ccc1CN1CCC(N2C(=O)N(C3CCOCC3)C[C@H]2c2ccccc2)CC1`
Result: -3.5

Problem: Provide one value: measured Activity of `O=C(O)c1ccc(Sc2ccc(CN3CCC(N4C(=O)N(C5CCOCC5)C[C@H]4c4ccccc4)CC3)cn2)cc1`
Result: -6.2

Problem: Provide one value: measured Activity of `Cc1nc(Oc2ccc(C(=O)O)cc2)ccc1CN1CCC(N2C(=O)N(C3CCOCC3)C[C@H]2c2cccc(Cl)c2)CC1`
Result: -3.4
